# Assay setup: buffer; pH 7.4; 200.0 µM
Param threshold (7 µg/mL) applies to solubility kinetic; output 1 (yes) when value >= threshold, 0 (no) when value < threshold.

Look over these answered cases.
INSERT INTO assay_data (compound, classification) VALUES
  ('Cc1nc2ccc(NS(=O)(=O)c3c(F)cccc3F)cc2s1', '1 (yes)'),
  ('COC(=O)c1c(C(=O)OC)c2ccccn2c1C(=O)c1ccccc1', '0 (no)'),
  ('COc1ccc(C(=O)Nc2ccccc2C(=O)Nc2ccccn2)cc1', '0 (no)'),
  ('COc1ccccc1NC(=O)COC(=O)c1ccc([N+](=O)[O-])s1', '0 (no)'),
  ('Cc1ccc(C(=O)N2CCN(C(=O)c3ccc(C)cc3)C2)cc1', '1 (yes)');

Now let's try a different one.
For this compound, is measured solubility kinetic 7 µg/mL or higher? "CC(C)N1C(=O)c2ccccc2N(Cc2ccccc2)S1(=O)=O"
0 (no)

###

# Assay setup: buffer; pH 7.4; 200.0 µM
Measured solubility kinetic values are reported for all entries that follow.
Numbers only here, please. The scale is µg/mL.

INSERT INTO assay_data (compound_smiles, reported_metric, reported_value) VALUES
  ('COc1ccc(C(=O)C2CCN(CC(=O)Nc3ccccc3F)CC2)cc1', 'solubility kinetic', 4.5),
  ('CC(=O)Nc1ccc(NC(=O)Nc2ccccc2C)cc1', 'solubility kinetic', 1.8),
  ('CCOc1ccc(NC(=O)COC(=O)c2ccc(S(=O)(=O)N3CCOCC3)cc2)cc1', 'solubility kinetic', 25.9),
  ('CCc1ccc(NC(=S)Nc2cccc3cnccc23)cc1', 'solubility kinetic', 11.6),
  ('Cc1ccc(NC(=O)c2ccc3[nH]c(=O)c(=O)[nH]c3c2)nc1', 'solubility kinetic', 8.7);

For reference, reported solubility kinetic for "O=C(Nc1ccc(NC(=O)c2cccs2)cc1)c1cccnc1" stands at 0.4

For reference, reported solubility kinetic for "CCOc1ccc(Nc2nc(N)c([N+](=O)[O-])c(N3CCOCC3)n2)cc1" stands at 2.4

###

Measured log10 solubility kinetic values are reported for all entries that follow.
# Assay setup: buffer; pH 7.4; 200.0 µM
Short version: log10 scale, solubility kinetic, µg/mL.

Before answering, review these 10 worked examples.
INSERT INTO assay_data (compound, reported_value) VALUES
  ('CS(=O)(=O)N1c2cccc3cccc(c23)S1(=O)=O', 0.89),
  ('CCN(CC)CCOCCOc1ccc(Cl)c2ccccc12', 1.51),
  ('COc1cc2c(cc1OC)CN(C(=O)c1cc(Cl)nc(Cl)c1)CC2', 1.43),
  ('CSc1nc(-c2ccccc2)nc(NC(C)=O)c1C(C)=O', 0.59),
  ('CCCCN1C(=O)c2ccc(C(=O)N(C)CC(=O)Nc3ccc(OCC)c(OCC)c3)cc2C1=O', 1.24),
  ('Cc1cc(C)cc(N2CC(C)Cn3c2nc2c3c(=O)[nH]c(=O)n2C)c1 (centres undefined)', 1.11),
  ('COC(=O)CNC(=S)NC(=O)c1ccc(C(C)(C)C)cc1', 1.40),
  ('Cc1ccc2nc(C)cc(C(=O)Nc3nccs3)c2c1', 1.29),
  ('COc1ccccc1N1CCN(S(=O)(=O)c2ccc(Cl)cc2)CC1', 0.60),
  ('CC1CCCC(C)N1C(=O)COC(=O)c1ccccc1O (centres undefined)', 1.63);

For reference, reported log10 solubility kinetic for "O=[N+]([O-])c1ccc2nc(Cl)nc(-c3ccccc3)c2c1" stands at 0.68

For reference, reported log10 solubility kinetic for "CCN(CC)C(=O)c1cccc(C)c1" stands at 1.29

###

# Assay setup: buffer; pH 7.4; 200.0 µM
Reported metric: solubility kinetic (µg/mL)
Numbers only here, please. The scale is µg/mL.

Before answering, review these 5 worked examples.
INSERT INTO results (compound, reported_value) VALUES
  ('CCc1cccc(NC(=O)Cn2cc(C=O)c3ccccc32)c1', 0.5),
  ('Cc1ccc(CSCc2ccc(C(=O)NC3CCCC3)o2)cc1', 1.9),
  ('CC(=O)NC1C(=O)N(Cc2ccccc2)c2ccc(Br)cc21 (stereo not given)', 18),
  ('Cc1c(C)n(CCCN(C)C)c2ncnc(Nc3ccc(F)cc3)c12', 48.7),
  ('COc1ccc(Cl)cc1NC(=O)COC(=O)Cc1cc(OC)c(OC)c(OC)c1', 46.6);

For reference, reported solubility kinetic for CCCCNC(=O)C1CCC(=O)N1CCc1ccccc1 (stereo not given) stands at 42.4

For reference, reported solubility kinetic for CC1CC(C)CN(C(=O)COC(=O)c2ccc3c(c2)OCO3)C1 (stereo not given) stands at 47

For reference, reported solubility kinetic for "CCN(CC(=O)Nc1cccc(OC)c1)C(=O)c1ccncc1" stands at 37.2

For reference, reported solubility kinetic for CN(C)C(CNc1ncnc2ccccc12)c1c(F)cccc1Cl (stereo not given) stands at 49.4

For reference, reported solubility kinetic for "O=C(COC(=O)/C=C/c1ccccc1)NCc1cccs1" stands at 17.7

For reference, reported solubility kinetic for COc1ccc(OC)c(C2NC(=O)CCC2[N+](=O)[O-])c1 (stereo not given) stands at 40.1

###

# Assay setup: buffer; pH 7.4; 200.0 µM
Measured solubility kinetic values are reported for all entries that follow.
Numbers only here, please. The scale is µg/mL.

Before answering, review these 5 worked examples.
INSERT INTO results (compound, reported_value) VALUES
  ('COc1ccc(Br)cc1CN(C)C(=O)C1=CC=CN2CCS(=O)(=O)N=C12', 43.1),
  ('COc1ccc(C2C(C#N)=C(N)Oc3cc(O)ccc32)cc1C (stereo not given)', 31.5),
  ('CC(c1nccs1)N(C)c1nc2nonc2nc1NC1CC1 (stereo not given)', 9.6),
  ('COc1ccccc1-n1ccnc1SCC(=O)NC(C)(C)C', 43.9),
  ('COc1cccc(CN2CCN(c3ncccn3)CC2)c1OC', 35.7);

For reference, reported solubility kinetic for "COc1ccc2c(COC(=O)CNS(=O)(=O)c3ccccc3)cc(=O)oc2c1" stands at 46

For reference, reported solubility kinetic for Cc1cccc(C)c1NC(=S)N1CCC(c2ccccc2)C1 (stereo not given) stands at 34.1

For reference, reported solubility kinetic for "COc1ccc(CCNC(=O)c2ccc(Cl)nc2)cc1" stands at 36.5

For reference, reported solubility kinetic for "NC(=O)c1ccccc1NCC(=O)c1ccc(Cl)cc1" stands at 2.9

For reference, reported solubility kinetic for "NS(=O)(=O)c1ccc(NC(=O)Nc2ccccc2)cc1" stands at 42.8

For reference, reported solubility kinetic for "Cc1ccc(C(=O)Nc2ccccc2N2CCCCC2)o1" stands at 2.8

For reference, reported solubility kinetic for CC1CN(C(=O)c2cc3cc([N+](=O)[O-])ccc3oc2=O)CC(C)O1 (stereo not given) stands at 46.1

For reference, reported solubility kinetic for "O=C(CNC1CCCCC1)Nc1cccc([N+](=O)[O-])c1" stands at 31.4

For reference, reported solubility kinetic for "COCCNc1ccc(N2C(=O)CCCC2=O)cc1[N+](=O)[O-]" stands at 45.8

For reference, reported solubility kinetic for "N=c1oc2ccc3ccccc3c2cc1C(N)=S" stands at 7.2

For reference, reported solubility kinetic for "Cc1cccc(OCC(=O)NCCCNC(=O)c2ccccn2)c1" stands at 45.4

For reference, reported solubility kinetic for "CCOC(=O)CSc1nc2cc(C(F)(F)F)cnc2n1C" stands at 44.9

For reference, reported solubility kinetic for "COc1cc(CNc2ccc(N3CCCC3)cc2)cc(Cl)c1OC" stands at 9.7

###

# Assay setup: buffer; pH 7.4; 200.0 µM
Measured solubility kinetic values are reported for all entries that follow.

Before answering, review these 3 worked examples.
INSERT INTO measurements (molecule, reported_value) VALUES
  ('Cc1cccc(N=C2C(=O)Nc3c(Cl)cccc32)c1', '32.4 µg/mL'),
  ('CN(C)C(=O)CSc1nc2cc(S(=O)(=O)N3CCOCC3)ccc2o1', '> 57.8 µg/mL'),
  ('N#Cc1ccc(C(=O)OCC(=O)Nc2cccc(S(=O)(=O)NC3=NCCC3)c2)cc1', '> 64 µg/mL');

For reference, reported solubility kinetic for CCOC(=O)C1=C(N)OC2=C(C(=O)CCC2)C12C(=O)N(C)c1ccccc12 (configuration not stated) stands at 29.1 µg/mL

For reference, reported solubility kinetic for "Nc1c2c(nn1-c1ccccc1)CCC2" stands at > 29.9 µg/mL

###

Measured solubility kinetic values are reported for all entries that follow.
# Assay setup: buffer; pH 7.4; 200.0 µM

Before answering, review these 5 worked examples.
INSERT INTO measurements (molecule, reported_value) VALUES
  ('Cc1[nH]c2ccc(Br)cc2c(=S)c1C/C=C/Cl', '5.3 µg/mL'),
  ('COCCNc1ccc(N2C(=O)C3CCCCC3C2=O)cc1[N+](=O)[O-] (stereo unspecified)', '50.8 µg/mL'),
  ('COC(=O)c1ccccc1NS(=O)(=O)c1c(C)noc1C', '> 46.5 µg/mL'),
  ('Cc1noc(C)c1C(=O)NCCc1ccc(S(N)(=O)=O)cc1', '> 48.5 µg/mL'),
  ('C#CC(C)(C)NC(=O)c1ccc(-c2ccccc2F)cc1', '< 0.6 µg/mL');

# context switch: different molecule, same solubility kinetic
For reference, reported solubility kinetic for O=C(NCc1cccs1)C1CC(=O)N(Cc2ccccc2)C1 (stereo unspecified) stands at > 47.2 µg/mL
